Source: ChEMBL document CHEMBL1152880

biological target: Adenosine receptor A2a (Homo sapiens); assay: Displacement of [3H]SCH-58261 from human recombinant adenosine A2A receptor expressed in HEK293 cells
Sequence (P29274 whole entry): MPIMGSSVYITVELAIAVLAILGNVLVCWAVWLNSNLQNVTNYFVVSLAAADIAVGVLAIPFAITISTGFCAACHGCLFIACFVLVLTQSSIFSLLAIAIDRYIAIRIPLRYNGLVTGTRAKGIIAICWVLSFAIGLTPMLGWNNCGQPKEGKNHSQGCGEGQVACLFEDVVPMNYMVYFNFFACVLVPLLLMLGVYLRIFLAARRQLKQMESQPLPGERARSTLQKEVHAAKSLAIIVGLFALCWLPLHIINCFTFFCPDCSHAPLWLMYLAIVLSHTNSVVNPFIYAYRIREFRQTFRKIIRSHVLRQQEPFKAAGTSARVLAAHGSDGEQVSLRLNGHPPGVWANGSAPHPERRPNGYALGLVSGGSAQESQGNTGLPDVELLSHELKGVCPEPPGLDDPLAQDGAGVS
Response field label: string, one of Met (Ki strictly below 100 nM) or Not met.

Compound	Tgt	Class assignment
COCCNc1ncc2c(n1)n(-c1cccc(OC)c1)c(=O)n2Cc1c(F)cccc1F	Adenosine receptor A2a (Homo sapiens)	Not met
COc1cccc(-n2c(=O)n(Cc3c(F)cccc3F)c3cnc(Nc4cccnc4)nc32)c1	Adenosine receptor A2a (Homo sapiens)	Not met
COc1cccc(-n2c(=O)n(Cc3ccccc3F)c3cnc(NC4CC4)nc32)c1	Adenosine receptor A2a (Homo sapiens)	Met
COc1cccc(-n2c(=O)n(Cc3c(F)cccc3F)c3cnc(NCCc4cccs4)nc32)c1	Adenosine receptor A2a (Homo sapiens)	Met
CNc1ncc2c(n1)n(-c1cccc(OC)c1)c(=O)n2Cc1c(F)cccc1F	Adenosine receptor A2a (Homo sapiens)	Met
COc1cccc(-n2c(=O)n(Cc3c(F)cccc3F)c3cnc(NC(C)C)nc32)c1	Adenosine receptor A2a (Homo sapiens)	Met
COc1cccc(-n2c(=O)n(Cc3c(F)cccc3F)c3cnc(NCc4ccccn4)nc32)c1	Adenosine receptor A2a (Homo sapiens)	Met
COc1cccc(-n2c(=O)n(Cc3ccccc3OC)c3cnc(NC4CC4)nc32)c1	Adenosine receptor A2a (Homo sapiens)	Met
COc1cccc(-n2c(=O)n(Cc3c(F)cccc3OC)c3cnc(NC4CC4)nc32)c1	Adenosine receptor A2a (Homo sapiens)	Met
COc1cccc(Cn2c(=O)n(Cc3ccccc3OC)c3cnc(NC4CC4)nc32)c1	Adenosine receptor A2a (Homo sapiens)	Not met
COc1ccccc1Cn1c(=O)n(-c2cccc(F)c2)c2nc(NC3CC3)ncc21	Adenosine receptor A2a (Homo sapiens)	Met
COc1cccc(-n2c(=O)n(Cc3c(F)cccc3F)c3cnc(NCc4ccccc4)nc32)c1	Adenosine receptor A2a (Homo sapiens)	Met
COc1cccc(-n2c(=O)n(Cc3c(F)cccc3F)c3cnc(NCCc4ccccn4)nc32)c1	Adenosine receptor A2a (Homo sapiens)	Met
COc1cccc(-n2c(=O)n(Cc3c(F)cccc3F)c3cnc(NC4CC4)nc32)c1	Adenosine receptor A2a (Homo sapiens)	Met
COc1cccc(-n2c(=O)n(Cc3c(F)cccc3F)c3cnc(NCCN(C)C)nc32)c1	Adenosine receptor A2a (Homo sapiens)	Not met
COc1cc(OC)cc(-n2c(=O)n(Cc3ccccc3OC)c3cnc(NC4CC4)nc32)c1	Adenosine receptor A2a (Homo sapiens)	Met
COc1cccc(-n2c(=O)n(C(C)c3ccccc3)c3cnc(NC4CC4)nc32)c1 (stereo not given)	Adenosine receptor A2a (Homo sapiens)	Not met
COc1ccccc1Cn1c(=O)n(-c2ccccc2)c2nc(NC3CC3)ncc21	Adenosine receptor A2a (Homo sapiens)	Not met
COc1ccccc1Cn1c(=O)n(-c2cccc(C#N)c2)c2nc(NC3CC3)ncc21	Adenosine receptor A2a (Homo sapiens)	Not met
COc1cccc(-n2c(=O)n(C)c3cnc(NC4CC4)nc32)c1	Adenosine receptor A2a (Homo sapiens)	Not met

* * *

target: Adenosine receptor A1 (Homo sapiens, UniProt P30542); assay: Displacement of [3H]DPCPX from human recombinant adenosine A1 receptor expressed in CHOK1 cells
Sequence (P30542 whole entry): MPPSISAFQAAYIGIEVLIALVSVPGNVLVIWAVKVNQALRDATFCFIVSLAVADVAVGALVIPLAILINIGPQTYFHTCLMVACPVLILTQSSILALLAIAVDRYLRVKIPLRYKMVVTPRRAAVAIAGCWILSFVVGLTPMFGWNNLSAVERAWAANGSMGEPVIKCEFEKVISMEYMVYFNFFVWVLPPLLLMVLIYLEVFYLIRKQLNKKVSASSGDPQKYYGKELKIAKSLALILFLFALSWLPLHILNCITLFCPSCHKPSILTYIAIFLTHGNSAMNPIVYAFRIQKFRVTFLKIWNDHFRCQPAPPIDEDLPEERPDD
pKi: −log10 of the molar value.

Chemical structure	Qualifying sign	pKi
COc1cccc(Cn2c(=O)n(Cc3ccccc3OC)c3cnc(NC4CC4)nc32)c1	<	5.00
COc1cccc(-n2c(=O)n(Cc3c(F)cccc3F)c3cnc(NCc4ccccc4)nc32)c1	=	5.53
COc1cccc(-n2c(=O)n(Cc3ccccc3)c3cnc(NC4CC4)nc32)c1	=	6.25
COc1cccc(-n2c(=O)n(Cc3c(F)cccc3F)c3cnc(NCCN4CCOCC4)nc32)c1	=	5.07
COc1cccc(-n2c(=O)n(Cc3c(F)cccc3F)c3cnc(NCCc4cccs4)nc32)c1	=	5.71
COc1cccc(-n2c(=O)n(Cc3c(F)cccc3F)c3cnc(NCC4CC4)nc32)c1	=	5.97
CCNc1ncc2c(n1)n(-c1cccc(OC)c1)c(=O)n2Cc1c(F)cccc1F	=	5.98
COc1cccc(-n2c(=O)n(Cc3c(F)cccc3F)c3cnc(NCc4ccccn4)nc32)c1	=	5.92
COc1cccc(-n2c(=O)n(Cc3c(F)cccc3F)c3cnc(NC4CC4)nc32)c1	=	6.63
COc1ccccc1Cn1c(=O)n(-c2cccc(C#N)c2)c2nc(NC3CC3)ncc21	=	5.49
CNc1ncc2c(n1)n(-c1cccc(OC)c1)c(=O)n2Cc1c(F)cccc1F	=	5.95
COc1cccc(-n2c(=O)n(Cc3ccccc3Cl)c3cnc(NC4CC4)nc32)c1	=	5.55
COc1cccc(-n2c(=O)n(Cc3c(F)cccc3F)c3cnc(Nc4cccnc4)nc32)c1	=	5.74
COc1ccccc1Cn1c(=O)n(-c2cccc(OC(F)(F)F)c2)c2nc(NC3CC3)ncc21	=	5.29
COc1ccccc1Cn1c(=O)n(-c2cccc(F)c2)c2nc(NC3CC3)ncc21	=	6.22
COc1cccc(-n2c(=O)n(Cc3c(F)cccc3OC)c3cnc(NC4CC4)nc32)c1	=	6.48
COc1cccc(-n2c(=O)n(-c3ccccc3OC)c3cnc(NC4CC4)nc32)c1	=	5.90
COc1cc(OC)cc(-n2c(=O)n(Cc3ccccc3OC)c3cnc(NC4CC4)nc32)c1	=	5.33
COc1ccccc1Cn1c(=O)n(-c2ccccc2)c2nc(NC3CC3)ncc21	=	6.35
COc1cccc(-n2c(=O)n(Cc3ccccc3OC)c3cnc(NC4CC4)nc32)c1	=	6.40
COc1ccccc1Cn1c(=O)n(-c2cccc(C)c2)c2nc(NC3CC3)ncc21	=	5.73
COc1cccc(-n2c(=O)n(Cc3c(F)cccc3F)c3cnc(NC4CCCC4)nc32)c1	=	5.98
